tested on: LOC_OS06G16330-cb003; test: thermal shift delta Tm vs DMSO control; higher = stronger stabilization (binding); details: 12.5 µM; protein concentration 2 µM;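 further: purified Escherichia coli-expressed rice kinase domain construct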
Sequence (as listed by the source): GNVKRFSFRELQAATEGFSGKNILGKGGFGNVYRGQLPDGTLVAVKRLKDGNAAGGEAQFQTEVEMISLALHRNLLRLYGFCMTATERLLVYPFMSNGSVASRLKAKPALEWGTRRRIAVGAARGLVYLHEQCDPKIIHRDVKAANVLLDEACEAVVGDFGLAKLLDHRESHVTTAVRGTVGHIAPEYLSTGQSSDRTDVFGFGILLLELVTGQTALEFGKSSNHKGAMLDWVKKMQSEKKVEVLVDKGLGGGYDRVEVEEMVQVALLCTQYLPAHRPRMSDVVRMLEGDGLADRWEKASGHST
1 (yes) means recorded thermal shift delta Tm is 7 °C or above; 0 (no) means it is below 7 °C.

Below, 3 compounds whose answers are already recorded.
Chem Smiles | Measured On | Class Label
COc1cc(OC)c(/C=C/S(=O)(=O)Cc2ccc(OC)c(NCC(=O)O)c2)c(OC)c1 | LOC_OS06G16330-cb003 | 0 (no)
CC(C)(C)Cn1c(N)nc2ccc(-c3[nH]c(C(C)(C)C)nc3-c3ccc(F)cc3)nc21 | LOC_OS06G16330-cb003 | 0 (no)
N#CC(=C(/N)Sc1ccccc1N)/C(C#N)=C(\N)Sc1ccccc1N | LOC_OS06G16330-cb003 | 0 (no)

Input: Entry CCCS(=O)(=O)Nc1ccc(F)c(C(=O)c2c[nH]c3ncc(-c4ccc(Cl)cc4)cc23)c1F : is its thermal shift delta Tm no less than 7 °C?
Output: 1 (yes)

Input: Identify whether the reported thermal shift delta Tm of the following compound is 7 °C or greater: CCn1c(-c2nonc2N)nc2c(C#CC(C)(C)O)ncc(OC[C@H]3CCCNC3)c21
Output: 0 (no)

Input: // inclusive: thermal shift delta Tm at least 7 °C? input: CCCCNc1ncc2c(-c3ccc(CN4CCN(C)CC4)cc3)cn([C@H]3CC[C@H](O)CC3)c2n1
Output: 1 (yes)

Input: hey, is thermal shift delta Tm for this one >= 7 °C? C#Cc1cccc(Nc2ncnc3cc(OC)c(OCCCCCCC(=O)NO)cc23)c1
Output: 0 (no)

Input: hey, is thermal shift delta Tm for this one >= 7 °C? O=C1NC(=O)/C(=C/c2ccc(-c3ccc(F)cc3O)o2)S1
Output: 0 (no)

* * *

tested on: LOC_OS01G01410-cb001; experiment: thermal shift delta Tm vs DMSO control; higher = stronger stabilization (binding); conditions: 12.5 µM; protein concentration 2 µM
Observation Type: thermal shift delta Tm (°C)
Give a bare numeral; the unit °C is implied.

Illustrative cases are given below, each with its answer.
Molecule | thermal shift delta Tm / °C
CC(C)N(CCC(=O)c1ccc2ccccc2c1)Cc1ccccc1 | -0.06
C[C@@H](Oc1cc(-n2cnc3ccc(CN4CCN(C)CC4)cc32)sc1C(N)=O)c1ccccc1C(F)(F)F | 0.17
Cc1cc(CN2CCN(c3c(Br)cnc4nc(-c5ccc(N6CCN(C)CC6)cc5)[nH]c34)CC2)no1 | 4.15
COc1cc2ncnc(Nc3ccc(F)c(Cl)c3)c2cc1OCCCN1CCOCC1 [Gefitinib (ZD1839)] | 1.27

Sample NC1(Cc2ccc(Cl)cc2)CCN(c2ncnc3[nH]ccc23)CC1 ; thermal shift delta Tm observed: 0.45

// field: thermal shift delta Tm; key: O=C1NC(=O)/C(=C/c2cccc(C(F)(F)F)c2)S1 ; value = -0.06

Form: molecule = CN1CCC(COc2cnc(-c3cccc(Cn4nc(-c5cccc(C#N)c5)ccc4=O)c3)nc2)CC1 ; thermal shift delta Tm = 0.33

* * *

test system: LOC_OS01G13800-cb001; experiment: thermal shift delta Tm vs DMSO control; higher = stronger stabilization (binding); conditions: 12.5 µM; protein concentration 2 µM
label 1 means recorded thermal shift delta Tm is 0.05 °C or above; label 0 means it is below 0.05 °C.

Compound | Class Label
Cc1cccc(CC(=O)N2CCc3c2ccc(-c2cn(C)c4ncnc(N)c24)c3F)n1 | label 0
C=CC(=O)Nc1cccc(Oc2nc(Nc3ccc(N4CCN(C)CC4)cc3)nc3ccsc23)c1 | label 1
Cc1c(NC(=O)OC[C@@H]2COCCN2)cn2ncnc(Nc3ccc4c(cnn4Cc4cccc(F)c4)c3)c12 | label 1
COc1cc(F)c(F)c(Nc2ccc(I)cc2F)c1NS(=O)(=O)C1(C[C@H](O)CO)CC1 [Refametinib (RDEA119, Bay 86-9766)] | label 1
Cc1cc(Nc2cc(N)ncn2)c(=O)n2c1C(=O)NC21CCCCC1 | label 0

Input: Does the compound O=C(O)c1ccc2c3c1cccc3c(=O)n1c3ccccc3nc21 have recorded thermal shift delta Tm that is 0.05 °C or more?
Output: label 1

Input: Does N#C/C(=C(/N)Sc1ccc(N)cc1)c1ccccc1C(F)(F)F have a reported thermal shift delta Tm of at least 0.05 °C?
Output: label 1

Input: Decide: is the reported value of thermal shift delta Tm for COC(=O)N[C@@H](C)CNc1nccc(-c2cn(C(C)C)nc2-c2cc(Cl)cc(NS(C)(=O)=O)c2F)n1 [Encorafenib (LGX818)] equal to or greater than 0.05 °C?
Output: label 0

Values from the supplement of paper PMC9694430
